Would you kindly list DC50 for each of these compounds?
Target: ERα in MCF7 cells (Homo sapiens (Human), UniProt P03372)
Sequence (P03372 whole entry): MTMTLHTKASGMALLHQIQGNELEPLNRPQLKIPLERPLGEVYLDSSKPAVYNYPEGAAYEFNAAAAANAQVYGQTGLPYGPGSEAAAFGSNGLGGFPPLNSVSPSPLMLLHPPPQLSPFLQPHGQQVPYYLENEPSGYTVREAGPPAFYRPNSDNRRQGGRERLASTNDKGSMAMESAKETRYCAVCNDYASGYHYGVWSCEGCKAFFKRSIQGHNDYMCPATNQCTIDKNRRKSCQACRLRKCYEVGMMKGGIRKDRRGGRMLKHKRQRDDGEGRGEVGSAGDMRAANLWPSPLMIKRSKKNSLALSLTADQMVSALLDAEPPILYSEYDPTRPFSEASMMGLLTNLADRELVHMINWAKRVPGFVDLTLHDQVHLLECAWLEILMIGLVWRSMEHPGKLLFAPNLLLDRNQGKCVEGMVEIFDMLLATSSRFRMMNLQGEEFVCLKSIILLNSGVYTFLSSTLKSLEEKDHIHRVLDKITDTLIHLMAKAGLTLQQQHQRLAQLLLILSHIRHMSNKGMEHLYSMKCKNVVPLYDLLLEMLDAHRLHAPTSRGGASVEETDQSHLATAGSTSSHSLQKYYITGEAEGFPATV
Assay: Test C: estrogen receptor degradation activity, ERα in cell western assay in MCF7 cells
Assay type: cell-based
Conditions: 4 hours post compound addition, ERα in cell western, read-out: Degradation IC50
Procedure: Test C: Estrogen Receptor Degradation Activity Test C involves measuring the in vitro degradation activity of the compounds of the invention. […] MCF7 cells (ATCC) were seeded in 384 wells microplate (collagen coated) at concentration of >9990 cells/30 μL per well in red phenol free MEM alpha medium (invitrogen) containing 5% charcoal dextran striped FBS. […] Integrated intensities in the green fluorescence and red fluorescence were measured to determine the levels of ERα and DNA respectively.
One number for each entry, in nM.

Q: Look at this compound and give its reported DC50. CCOc1ccc(C2=C(c3cnc(O[C@H]4CCN(CCCF)C4)nc3)c3ccc(O)cc3CCC2)c(F)n1
Result: 0.5

Q: Look at this compound and give its reported DC50. Oc1ccc2c(c1)OCCC(c1ccc3[nH]ccc3c1)=C2c1ccc(O[C@H]2CCN(CCCF)C2)cc1
Result: 0.4

Q: Look at this compound and give its reported DC50. CC1Cc2cc(C3=C(c4ccc(O[C@H]5CCN(CCCF)C5)cc4)c4ccc(O)cc4SCC3)ccc2O1 (stereo partly shown)
Result: 0.2

Q: Look at this compound and give its reported DC50. Oc1ccc2c(c1)CCCC(c1ccc(SC(F)(F)F)cc1)=C2c1ccc(N[C@H]2CCN(CCCF)C2)cc1
Result: 0.4

Q: Look at this compound and give its reported DC50. Cc1ccc(C2=C(c3ccc(O[C@H]4CCN(CCCF)C4)cc3)c3ccc(O)cc3SC2)c(Cl)n1
Result: 0.2

Q: Look at this compound and give its reported DC50. Cc1ccc(C2=C(c3ccc(O[C@H]4CCN(CCCF)C4)cc3)c3cc(O)ccc3SCC2)c(F)c1
Result: 0.2

Further cases:
Q: Look at this compound and give its reported DC50. Cc1cc2c(cc1O)OCCC(c1cccc(Cl)c1C)=C2c1ccc(O[C@H]2CCN(CCCF)C2)cc1
Result: 3

###

molecular target: ERα in MCF7 cells (Homo sapiens (Human), UniProt P03372); test: Test C: estrogen receptor degradation activity, ERα in cell western assay in MCF7 cells; format: cell-based; settings: at 3 μM, 4 hours, relative to fulvestrant
Observation Type: % Degradation at 3 μM (%)
Numbers only, in %.

// solved cases for % Degradation at 3 μM follow
Q: Look at this molecule and give its reported % Degradation at 3 μM. Cc1cc(C2=C(c3ccc(O[C@H]4CCN(CCCF)C4)cc3)c3ccc(O)cc3S(=O)(=O)CC2)ccc1Cl
Result: 91

Q: Look at this molecule and give its reported % Degradation at 3 μM. Oc1ccc2c(c1)C(c1ccc(O[C@H]3CCN(CCCF)C3)cc1)=C(c1ccc(F)cc1Cl)CC2
Result: 87

Q: Look at this molecule and give its reported % Degradation at 3 μM. Cc1cc(C2=C(c3ccc(O[C@H]4CCN(CCCF)C4)cc3)c3ccc(C(=O)O)cc3SCC2)ccc1Cl
Result: 93

Q: Look at this molecule and give its reported % Degradation at 3 μM. Oc1ccc2c(c1)OCCC(c1ccc(Cl)c(F)c1)=C2c1ccc(O[C@H]2CCN(CCCF)C2)cc1
Result: 94

Q: Look at this molecule and give its reported % Degradation at 3 μM. CCOc1ccc(C2=C(c3ccc(N[C@H]4CCN(CCCF)C4)cc3)c3ccc(O)cc3CCC2)c(F)n1
Result: 95

Q: Look at this molecule and give its reported % Degradation at 3 μM. Oc1ccc2c(c1)C(c1ccc(O[C@H]3CCN(CCCF)C3)cc1)=C(c1ccc3[nH]ccc3c1)CC2
Result: 81

Now for the molecule whose % Degradation at 3 μM we want.
Q: Look at this molecule and give its reported % Degradation at 3 μM. Cc1c(Cl)cccc1C1=C(c2ccc(O[C@H]3CCN(CCCF)C3)cc2)c2ccc(O)c(F)c2OCC1
Result: 91
